Tested on: P. falciparum HB3 in RBCs, SYBR Green DNA fluorescence
experimental_details: growth inhibition of P. falciparum HB3, dose response, HB3 strain, red blood cells, SYBR Green, cherry-picked (AID 652041);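 also: parasites exposed to compound for 72 hours before the DNA read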
I'd appreciate it if you could supply AC35 values for the items below.

Q: Can you share its AC35? I mean this compound: `COc1cccc(/C=N/Nc2ncnc3scc(-c4ccccc4)c23)c1O`
Result: 1.7 µM

Q: Subsequent entry: Cc1cccc2sc(NNC(=O)c3ccc(S(=O)(=O)N4CCCC(C)C4)cc3)nc12 (stereo unspecified)
Result: 4.44 µM

Q: Subsequent entry: `NC(=O)N=Nc1c2[nH]c3ccccc3nc-2c2ccccc12`
Result: 21.1 µM

Q: Subsequent entry: `O=C(COc1ccc([N+](=O)[O-])cc1)Nc1nc(-c2ccccn2)cs1`
Result: 6.38 µM

Q: Subsequent entry: `Cc1ccc(O)c(-c2cc(-c3ccccc3C)[nH]n2)c1`
Result: 6.3 µM

Q: Subsequent entry: `O=C(NOC(=O)c1ccccc1)c1ccccc1`
Result: 20.1 µM

----------
I'd appreciate it if you could supply AC35 values for the items below.
Test system: P. falciparum HB3 in RBCs, SYBR Green DNA fluorescence
experimental_details: growth inhibition of P. falciparum HB3, dose response, HB3 strain, red blood cells, SYBR Green, cherry-picked (AID 652041);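 also: parasites exposed to compound for 72 hours before the DNA read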

Q: Can you share its AC35? I mean this compound: `CCCc1cc(C(N)=O)c(NC(=O)c2cc(C)on2)s1`
Result: 39.7 µM

Q: Subsequent entry: `O=C(/C(=N/N=C/c1ccc(O)c(O)c1O)c1ccccc1)c1ccccc1`
Result: 3.7 µM

Q: Subsequent entry: `C=C(C)COc1ccc(-c2[nH]ncc2-c2ccc(Br)cc2)c(O)c1`
Result: 2.25 µM

Q: Subsequent entry: `COc1cnc(-c2ccccn2)nc1N(C)c1ccccc1`
Result: 3.46 µM

Q: Subsequent entry: `C=CCNc1nc(-c2ccccn2)nnc1-c1ccccc1`
Result: 2.22 µM

Q: Subsequent entry: CCC(NC(=S)NCc1ccc(F)cc1)c1ccc(C(C)C)cc1 (configuration not stated)
Result: 11.3 µM

Q: Subsequent entry: `O=C(c1ccc(Cl)cc1)N1CCN(c2ccc(F)cc2)CC1`
Result: 35.2 µM

Q: Subsequent entry: `NC(=Nc1nc(-c2ccccn2)cc2ccccc12)c1ccccn1`
Result: 0.22 µM

Q: Subsequent entry: CCC(C)Sc1cccc(-c2nc3ccccn3c2NCc2ccccc2)c1 (configuration not stated)
Result: 12.1 µM

Q: Subsequent entry: `COc1cnc(-c2ccccn2)nc1Sc1ccccc1`
Result: 9.03 µM

Q: Subsequent entry: `CCOC(=O)N1C(=O)C2(CCCCC2)N(c2ccccc2Cl)C1=S`
Result: 30.5 µM

Q: Subsequent entry: `CCCCC(=O)NC(=S)NNC(=O)CCc1ccccc1`
Result: 23 µM

----------
System: P. falciparum HB3 in RBCs, SYBR Green DNA fluorescence
experimental_details: growth inhibition of P. falciparum HB3, dose response, HB3 strain, red blood cells, SYBR Green, cherry-picked (AID 652041);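 also: parasites exposed to compound for 72 hours before the DNA read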
quantity: AC35

Q: Can you share its AC35? I mean this molecule: CCC1=NN(C(=O)c2cccc(Br)c2)C(O)(c2ccc(Br)cc2)C1 (stereo not given)
Result: 12.3 µM

Q: Subsequent entry: `O=C(NCCC1=CCCCC1)c1c(O)nc2sccn2c1=O`
Result: 16.2 µM

Q: Subsequent entry: O=C(c1ccc(-c2ccccc2)cc1)C1CCCN(C(=O)c2cncs2)C1 (stereo not given)
Result: 7.38 µM

Q: Subsequent entry: `Oc1ccccc1-c1cc(-c2ccc3c(c2)OCCO3)n[nH]1`
Result: 9.9 µM

Q: Subsequent entry: `CCN(CC)c1ccc(/C=N/NC(=O)c2c(Cl)cnn2C)c(O)c1`
Result: 2.66 µM

Q: Subsequent entry: O=C(CC1CC2CCC1C2)Nc1nc(-c2ccccn2)cs1 (stereo not given)
Result: 3.99 µM

Q: Subsequent entry: `O=Cc1cc(N=Nc2ccccc2Cl)ccc1O`
Result: 2.27 µM

Q: Subsequent entry: `COc1ccc2oc(=O)c(-c3csc(Nc4cccc(O)c4)n3)cc2c1`
Result: 12 µM

Q: Subsequent entry: `Cn1nc(C(F)(F)F)c(C#N)c1N1CCN(c2ccc(F)cc2)CC1`
Result: 18.7 µM

Q: Subsequent entry: `CN(C)c1nc(-c2ccccn2)nnc1-c1ccccc1`
Result: 2.54 µM

Q: Subsequent entry: CC(C)N1CCN(c2ccc(OCC3COC(Cn4cncn4)(c4ccc(Cl)cc4Cl)O3)cc2)CC1 (stereo not given)
Result: 4.53 µM

Q: Subsequent entry: COC(=O)C1=C(C)NC(C)=C(C(=O)OCC(C)C)C1c1ccccc1[N+](=O)[O-] (stereo not given)
Result: 4.63 µM

Q: Subsequent entry: `CN(C)c1nc(SCc2ccc(Cl)cc2)nc2c1CCCC2`
Result: 33.5 µM

Q: Subsequent entry: `O=C(Nc1nc(-c2ccccn2)cs1)c1ccc(Br)s1`
Result: 0.662 µM

Q: Subsequent entry: CC1CCc2c(C(=O)Nc3ccccn3)csc2C1 (stereo not given)
Result: 35.6 µM

Q: Subsequent entry: CC(C)C(=O)NC(c1ccco1)c1ccc2cccnc2c1O (stereo not given)
Result: 1.77 µM

Q: Subsequent entry: `Cc1cc(C(=O)COC(=O)Cc2n[nH]c(=O)c3ccccc23)c(C)n1-c1cccc(C(F)(F)F)c1`
Result: 4.22 µM

Q: Subsequent entry: O=C(c1ccccc1)N1C(=O)C(c2ccccc2)Oc2ccccc21 (stereo not given)
Result: 37.1 µM

Q: Subsequent entry: `O=C(N/N=C/c1ccc[nH]1)c1sc2ccccc2c1Cl`
Result: 15.8 µM

Q: Subsequent entry: `Cc1ccc2oc(-c3ccccc3)c(C(=O)O)c(=O)c2c1`
Result: 20.3 µM

Q: Subsequent entry: `CC1(C)C=Cc2c(ccc3c2OC[C@@H](c2ccc(O)cc2O)C3)O1`
Result: 13.8 µM

Q: Subsequent entry: `Clc1ccccc1C(c1ccccc1)(c1ccccc1)n1ccnc1`
Result: 0.645 µM

Q: Subsequent entry: `CCCCNc1c(-c2ccc(-c3ccc(OC)cc3)c(OC)c2)nc2ccccn12`
Result: 4.29 µM

Q: Subsequent entry: `CCCCCCn1c(=O)c(C(=O)Nc2ncccc2C)c(O)c2ccccc21`
Result: 4.29 µM

Q: Subsequent entry: `COc1ccc(O)c(C(=O)CC(=O)c2ccc(F)cc2)c1`
Result: 16.1 µM

Q: Subsequent entry: `CC(=O)C1=C(c2ccc(Br)cc2)C(=O)c2ccccc2C1=O`
Result: 0.472 µM

Q: Subsequent entry: `CN(C)c1ccc(C=c2c3ccccc3n3c2c2c([n+]3C)CCCC2)cc1`
Result: 0.228 µM

Q: Subsequent entry: `O=[N+]([O-])c1ccc2c(OCc3nnc(-c4ccccc4Br)o3)ncnc2c1`
Result: 21.8 µM

Q: Subsequent entry: `COc1cc(/C=N/O)cc(Br)c1OCc1cccc(Cl)c1`
Result: 28.1 µM

Q: Subsequent entry: `Cn1ccc(=Nc2ccc(NC(=O)c3ccc(N=c4ccn(C)c5ccc([N+](=O)[O-])cc45)cc3)cc2)cc1`
Result: < 0.0235 µM

Q: Subsequent entry: `Nc1nc(-c2ccccc2)c(-c2ccc([N+](=O)[O-])cc2)s1`
Result: 39.6 µM

Q: Subsequent entry: `Cc1ccc(NC(=S)c2nc3ccccc3[nH]2)c(C)c1`
Result: 5.68 µM

Q: Subsequent entry: `Cc1[nH]n(-c2ccccc2)c(=O)c1/C=N/Nc1nncc(-c2ccccc2)n1`
Result: 1.97 µM

Q: Subsequent entry: CCC(C)c1ccc(NC(=S)NCCn2cc(Br)cn2)cc1 (stereo not given)
Result: 10.5 µM

Q: Subsequent entry: `Cc1nc(-c2ccccn2)nc(N(C)c2ccccc2)c1Cl`
Result: 6.1 µM

Q: Subsequent entry: `C=C(C)COc1ccc(-c2[nH]ncc2-c2ccccc2)c(O)c1`
Result: 1.89 µM

Q: Subsequent entry: `CCOC(=O)c1cc2c(=Cc3ccc(N(C)C)cc3)c3ccccc3n2[n+]1C`
Result: 2.44 µM

Q: Subsequent entry: `FC(F)(F)c1cccc(N2CCc3cn[nH]c32)c1`
Result: 28.4 µM

Q: Subsequent entry: `Cc1nc2ccc(C(C(F)(F)F)(C(F)(F)F)C(F)(F)F)cc2[nH]1`
Result: 11.2 µM

Q: Subsequent entry: `COc1cc([N+](=O)[O-])cc(/C=N/NC(=O)c2cncc(Br)c2)c1O`
Result: 16.8 µM

Q: Subsequent entry: CCCC(C)Sc1nc2c([nH]1)c(=S)n(C)c(=O)n2C (stereo not given)
Result: 6.67 µM

Q: Subsequent entry: `O=C(O)CSc1nc(-c2ccc(Cl)cc2)nc2c1oc1ccccc12`
Result: 28.6 µM

Q: Subsequent entry: `Cc1nc(SCc2ccc(OCCC(C)C)cc2)n[nH]1`
Result: 13.1 µM

Q: Subsequent entry: `Cc1ccc(-n2nnnc2SCC(=O)N2CCc3ccccc3C2)c(C)c1`
Result: 28.7 µM

Q: Subsequent entry: `O=c1c2ccccc2nc(-c2ccc(-c3ccccc3)cc2)n1-c1ccncc1`
Result: 18.3 µM
